molecular target: Cathepsin K (Homo sapiens) (UniProt P43235); experiment: Inhibition of human cathepsin K assessed as ratio of Kinact/Ki using Z-Phe-Arg-pNA as substrate incubated for 60 mins by fluorometric assay
Sequence (P43235 whole entry): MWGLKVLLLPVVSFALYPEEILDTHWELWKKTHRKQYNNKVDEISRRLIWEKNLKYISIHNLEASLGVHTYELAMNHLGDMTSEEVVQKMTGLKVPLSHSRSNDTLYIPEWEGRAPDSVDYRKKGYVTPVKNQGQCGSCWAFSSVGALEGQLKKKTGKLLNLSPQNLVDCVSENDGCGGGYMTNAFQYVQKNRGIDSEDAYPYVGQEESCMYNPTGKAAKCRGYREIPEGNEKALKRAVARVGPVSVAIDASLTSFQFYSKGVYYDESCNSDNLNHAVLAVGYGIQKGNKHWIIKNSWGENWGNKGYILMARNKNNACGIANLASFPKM
measured.endpoint: Ratio (M⁻¹ s⁻¹)

Example results:
CCCC[C@H](NC(=O)CCCC[N+]1=C(/C=C/C=C/C=C2/N(C)c3ccccc3C2(C)C)C(C)(C)c2ccccc21)C(=O)N[C@@H](CC(C)C)C(=O)NC/C=C/C(=O)N(Cc1ccccc1)Cc1ccccc1 | 17900
CCCC[C@H](NC(=O)OC(C)(C)C)C(=O)N[C@@H](CC(C)C)C(=O)NC/C=C/C(=O)N(Cc1ccccc1)Cc1ccccc1 | 6440
CC(C)C[C@H](NC(=O)c1cc2cc3c4c(c2oc1=O)CCCN4CCC3)C(=O)NC/C=C/C(=O)N(Cc1ccccc1)Cc1ccccc1 | 9550

(P) CC(C)C[C@H](NC(=O)OC(C)(C)C)C(=O)NC/C=C/C(=O)N(Cc1ccccc1)Cc1ccccc1
(Q) CC(C)C[C@H](NC(=O)CCCC[N+]1=C(/C=C/C=C/C=C2/N(C)c3ccccc3C2(C)C)C(C)(C)c2ccccc21)C(=O)NC/C=C/C(=O)N(Cc1ccccc1)Cc1ccccc1.[Cl-]
(R) CC(C)C[C@H](NC(=O)c1ccc(-c2cc3cc4c5c(c3oc2=O)CCCN5CCC4)cc1)C(=O)NC/C=C/C(=O)N(Cc1ccccc1)Cc1ccccc1
Input: Order the 3 molecules from highest to lowest Ratio. Please write the labels in the order that was asked for.
Output: R, Q, P

---

molecular target: Cathepsin B (Homo sapiens); experiment: Inhibition of human cathepsin B assessed as residual activity using Z-Arg-Arg-pNA as substrate incubated for 60 mins by fluorometric assay; parameters: concentration or dose not given beside the values
measured.endpoint: Activity (%)

CCCC[C@H](NC(=O)CCCC[N+]1=C(/C=C/C=C/C=C2/N(C)c3ccccc3C2(C)C)C(C)(C)c2ccccc21)C(=O)N[C@@H](CC(C)C)C(=O)NC/C=C/C(=O)N(Cc1ccccc1)Cc1ccccc1 | 96
CC(C)C[C@H](NC(=O)OC(C)(C)C)C(=O)NC/C=C/C(=O)N(Cc1ccccc1)Cc1ccccc1 | 91
CC(C)C[C@H](NC(=O)c1cc2cc3c4c(c2oc1=O)CCCN4CCC3)C(=O)NC/C=C/C(=O)N(Cc1ccccc1)Cc1ccccc1 | 96
CC(C)C[C@H](NC(=O)CCCC[N+]1=C(/C=C/C=C/C=C2/N(C)c3ccccc3C2(C)C)C(C)(C)c2ccccc21)C(=O)NC/C=C/C(=O)N(Cc1ccccc1)Cc1ccccc1.[Cl-] | 96
CCCC[C@H](NC(=O)OC(C)(C)C)C(=O)N[C@@H](CC(C)C)C(=O)NC/C=C/C(=O)N(Cc1ccccc1)Cc1ccccc1 | 91

---

biological target: Procathepsin L (Homo sapiens) (UniProt P07711); experiment: Inhibition of human cathepsin L assessed as residual activity using Z-Phe-Arg-pNA as substrate incubated for 60 mins by fluorometric assay; design: concentration or dose not given beside the values
Sequence (P07711 114-333 limits assumed): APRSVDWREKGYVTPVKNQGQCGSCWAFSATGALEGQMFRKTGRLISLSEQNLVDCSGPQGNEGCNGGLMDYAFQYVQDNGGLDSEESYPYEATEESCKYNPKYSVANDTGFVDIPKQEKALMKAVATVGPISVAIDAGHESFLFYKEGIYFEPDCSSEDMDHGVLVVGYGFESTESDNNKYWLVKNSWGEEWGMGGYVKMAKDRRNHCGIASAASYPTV
measured.endpoint: Activity (%)

CC(C)C[C@H](NC(=O)c1cc2cc3c4c(c2oc1=O)CCCN4CCC3)C(=O)NC/C=C/C(=O)N(Cc1ccccc1)Cc1ccccc1 | 89
CC(C)C[C@H](NC(=O)CCCC[N+]1=C(/C=C/C=C/C=C2/N(C)c3ccccc3C2(C)C)C(C)(C)c2ccccc21)C(=O)NC/C=C/C(=O)N(Cc1ccccc1)Cc1ccccc1.[Cl-] | 89
CC(C)C[C@H](NC(=O)OC(C)(C)C)C(=O)NC/C=C/C(=O)N(Cc1ccccc1)Cc1ccccc1 | 83
CCCC[C@H](NC(=O)OC(C)(C)C)C(=O)N[C@@H](CC(C)C)C(=O)NC/C=C/C(=O)N(Cc1ccccc1)Cc1ccccc1 | 76
CCCC[C@H](NC(=O)CCCC[N+]1=C(/C=C/C=C/C=C2/N(C)c3ccccc3C2(C)C)C(C)(C)c2ccccc21)C(=O)N[C@@H](CC(C)C)C(=O)NC/C=C/C(=O)N(Cc1ccccc1)Cc1ccccc1 | 91
